Test system: HUVEC
measurement.notes: XTT cytotoxicity/proliferation assay, HUVEC
Format: cell-based, human
particulars: Homo sapiens, HUVEC, 72 hours of treatment, values above 100 μmol·l^−1 obtained by extrapolation, read-out: IC50 HUVEC
measurement.kind: IC50

Known results for molecules:
molecule	IC50
C(=C\c1cc(-c2ccccc2)cs1)/c1cc[n+]2c(c1)-c1c(ccc3c1-c1c4ccccc4cc[n+]1CC3)CC2 [MSB-C11-7]	≥ 100 µM
Cc1c(C)c2c(c3c1CC[n+]1ccc(/C=C/c4ccc5oc6ccccc6c5c4)cc1-3)-c1c3ccccc3cc[n+]1CC2 [MJA-C13-22]	≥ 100 µM
C(=C\c1c[nH]c2c1ccc1ccccc12)/c1cc2ccccc2[n+]2c1-c1c(ccc3c1-c1cccc[n+]1CCC3)CCC2 [MSC-C13-16]	≥ 100 µM

Please examine the following record next.
Query string: Find the recorded IC50 belonging to C(=C\c1c(-c2ccccc2)[nH]c2ccccc12)/c1cc2ccccc2[n+]2c1-c1c(ccc3c1-c1cccc[n+]1CCC3)CCC2.O=S(=O)([O-])C(F)(F)F.O=S(=O)([O-])C(F)(F)F [MSC-C15-8] and report it.
Result string: ≥ 51 µM
